Assay: Cytotoxicity (MTT test) in Vero-76 cells
Type: cell-based, African Green Monkey (Cercopithecus aethiops)
Settings: African green monkey, Vero-76 cells
VALUE KIND: CC50 at 72 h (µM)
Answer format: numeric, µM implied, no suffix.

CC50 at 72 h recorded for this compound, CCN(CCO)CCCC(C)Nc1ccnc2cc(Cl)ccc12 (stereo not shown) [HDQ, Hydroxychloroquine, reference compound] , is 40

###

Test: Acute toxicity, topical application, rats
Type: in vivo
Details: rat, in vivo, topical or ocular, 2500 mg/kg, acute toxicity, topical application, read-out: LD50
VALUE KIND: LD50

LD50 recorded for this compound, `Cc1nc(N2CC[N+]3(CC2)CC[N+]2(CCNCC2)CC3)c([N+](=O)[O-])c(N2CC[N+]3(CC2)CC[N+]2(CCNCC2)CC3)n1.Cl.Cl.O.O.O.O.O.O.O.O.O.[Cl-].[Cl-].[Cl-].[Cl-]` , is > 2500 mg/kg
